# key: entry, value: Population Hoechst High Intensity Objects (%)
Tested on: HEK-293T
Test: Multiplex assay against HEK293T
Assay type: toxicity, cell-based
Conditions: human, 24 h, 1 µM, compound concentration 1 uM, replicate 1
Record the result as a number with its unit.

Worked cases, Population Hoechst High Intensity Objects (%) given:
>>> data_value("N[C@](CC1c2ccccc2Oc2ccccc21)(C(=O)O)[C@H]1C[C@@H]1C(=O)O")
"3%"
>>> data_value("O=C(NCCNCC(O)COc1ccc(O)cc1)N1CCOCC1.O=C(NCCNCC(O)COc1ccc(O)cc1)N1CCOCC1.O=C(O)/C=C/C(=O)O (stereo not drawn) [XAMOTEROL FUMARATE]")
"6%"
>>> data_value("C=CCN1C[C@H](C(=O)N(CCCN(C)C)C(=O)NCC)C[C@@H]2c3cccc4[nH]cc(c34)C[C@H]21")
"4%"
>>> data_value("CN(C)C(=O)Cn1cc(-c2ccc(-c3nnc4ccccn34)cc2)cn1")
"6%"
>>> data_value("CCCCC[C@H](O)/C=C/[C@H]1[C@H](O)CC(=O)[C@@H]1CCCCCCC(=O)O")
"3%"

Input line: Fill blank: measured Population Hoechst High Intensity Objects (%) of the molecule COc1ccc2[nH]c(I)c(CCNC(C)=O)c2c1 is ____.
Output line: 3%

Input line: Fill blank: measured Population Hoechst High Intensity Objects (%) of the molecule CCc1nn2c(C)cc(C)nc2c1Cc1ccc(-c2nnc(C3CCNCC3)o2)cc1 is ____.
Output line: 4%

Input line: Fill blank: measured Population Hoechst High Intensity Objects (%) of the molecule CSc1nc(NC2CCCC2)c([N+](=O)[O-])c(NC2CCCC2)n1 is ____.
Output line: 7%

Values were extracted from ChEMBL document CHEMBL5058577.
